Biological target: T1, SpPot1-DBD (Schizosaccharomyces pombe, UniProt O13988 1-389)
T1 sequence: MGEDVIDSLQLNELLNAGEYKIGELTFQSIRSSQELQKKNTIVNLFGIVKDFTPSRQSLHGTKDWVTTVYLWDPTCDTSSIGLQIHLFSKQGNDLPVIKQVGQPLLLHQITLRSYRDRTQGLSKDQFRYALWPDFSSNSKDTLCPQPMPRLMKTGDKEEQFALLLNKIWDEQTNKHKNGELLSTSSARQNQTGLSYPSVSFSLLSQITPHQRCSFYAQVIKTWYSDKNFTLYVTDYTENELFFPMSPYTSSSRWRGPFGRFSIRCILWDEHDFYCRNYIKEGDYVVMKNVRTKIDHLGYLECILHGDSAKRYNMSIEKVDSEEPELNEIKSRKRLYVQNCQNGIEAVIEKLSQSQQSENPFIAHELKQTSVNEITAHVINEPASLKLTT
Assay: EMSA
experimental.readout: Kd (pM)
Numeric answer only, unit pM assumed.

What the record says about GGTTACGGTTACGGT (ssDNA) [15mer] : Kd is 1.6
